target: vitronectin; experiment: ELISA; matrix component (0.25 ug/well in 0.1 M Na2CO3, overnight 4 C) immobilised on polystyrene plates; Emp forms 0-1.5 uM added for 1 h at RT, PBST washes; detected with polyclonal anti-Emp IgG and AP-conjugated anti-rabbit IgG; KD from steady-state curves, one-site binding model
Sequence (P04004 20-478): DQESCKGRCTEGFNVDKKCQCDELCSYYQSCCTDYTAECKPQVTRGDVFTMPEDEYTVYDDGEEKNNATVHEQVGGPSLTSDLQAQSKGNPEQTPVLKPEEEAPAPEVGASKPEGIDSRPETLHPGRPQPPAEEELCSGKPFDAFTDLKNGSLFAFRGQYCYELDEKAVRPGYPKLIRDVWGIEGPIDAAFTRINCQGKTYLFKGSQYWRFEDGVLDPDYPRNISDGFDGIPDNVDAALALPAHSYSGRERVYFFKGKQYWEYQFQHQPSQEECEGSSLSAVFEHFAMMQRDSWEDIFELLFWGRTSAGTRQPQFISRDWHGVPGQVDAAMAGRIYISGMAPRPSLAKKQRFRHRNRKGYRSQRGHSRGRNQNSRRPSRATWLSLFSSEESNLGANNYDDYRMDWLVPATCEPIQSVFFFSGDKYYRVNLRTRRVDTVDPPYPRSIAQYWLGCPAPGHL
measure: pKd
# pKd = -log10(concentration in molar units)

Query: Return pKd (reported value) for this binder: Emp2 (central fragment of Emp) (domain or fragment, primers EmpFor2UA (+322) and EmpRev2UA (+648) relative to ATG; limits worked out from these positions and count on the precursor; source: E. coli (TG1 transformants, plasmid pQemp2), purified (Ni-NTA in 8 M urea, solubilized by stepwise dialysis)) YKEINNRVNVATNNPASQQVDKHFVAKGPEVNRFITQNKVNHHFITTQTHYKKVITSYKSTHVHKHVNHAKDSINKHFIVKPSESPRYTHPSQSLIIKHHFAVPGYHAH
Reply: 7.74

Query: Quickly give me recorded pKd for Emp1+2 (combination of Emp1 and Emp2) (domain or fragment, limits worked out from these positions and count on the precursor; source: E. coli (TG1 transformants, plasmid pQemp1 + 2), purified (Ni-NTA in 8 M urea, solubilized by stepwise dialysis)) ASVTESVDKKFVVPESGINKIIPAYDEFKNSPKVNVSNLTDNKNFVASEDKLNKIADSSAASKIVDKNFVVPESKLGNIVPEYKEINNRVNVATNNPASQQVDKHFVAKGPEVNRFITQNKVNHHFITTQTHYKKVITSYKSTHVHKHVNHAKDSINKHFIVKPSESPRYTHPSQSLIIKHHFAVPGYHAH
Reply: 8.05

Query: Tell us which pKd value is on record for full-length Emp protein (extracellular matrix protein Emp of Staphylococcus aureus, without the signal peptide) (natural protein, gene of 1,023 nucleotides; numbers count on: the protein without signal peptide and without His-tag; The vector (printed pQ30-UA, Qiagen) probably adds an N-terminal His6 (surmised); Primer EmpFor1UA starts at nt +76 (codon 26), which would give 315 residues against the printed 314; also called EmpFL; source: E. coli (TG1 transformants, plasmid pQemp), purified (Ni-NTA in 8 M urea, solubilized by …)) SVTESVDKKFVVPESGINKIIPAYDEFKNSPKVNVSNLTDNKNFVASEDKLNKIADSSAASKIVDKNFVVPESKLGNIVPEYKEINNRVNVATNNPASQQVDKHFVAKGPEVNRFITQNKVNHHFITTQTHYKKVITSYKSTHVHKHVNHAKDSINKHFIVKPSESPRYTHPSQSLIIKHHFAVPGYHAHKFVTPGHASIKINHFCVVPQINSFKVIPPYGHNSHRMHVPSFQNNTTATHQNAKVNKAYDYKYFYSYKVVKGVKKYFSFSQSNGYKIGKPSLNIKNVNYQYAVPSYSPTHYVPEFKGSLPAPRV
Reply: 7.47

These measurements were taken from paper PMC5651841.
